SYSTEM_TESTED: UniProt P56524
Sequence (P56524 whole entry): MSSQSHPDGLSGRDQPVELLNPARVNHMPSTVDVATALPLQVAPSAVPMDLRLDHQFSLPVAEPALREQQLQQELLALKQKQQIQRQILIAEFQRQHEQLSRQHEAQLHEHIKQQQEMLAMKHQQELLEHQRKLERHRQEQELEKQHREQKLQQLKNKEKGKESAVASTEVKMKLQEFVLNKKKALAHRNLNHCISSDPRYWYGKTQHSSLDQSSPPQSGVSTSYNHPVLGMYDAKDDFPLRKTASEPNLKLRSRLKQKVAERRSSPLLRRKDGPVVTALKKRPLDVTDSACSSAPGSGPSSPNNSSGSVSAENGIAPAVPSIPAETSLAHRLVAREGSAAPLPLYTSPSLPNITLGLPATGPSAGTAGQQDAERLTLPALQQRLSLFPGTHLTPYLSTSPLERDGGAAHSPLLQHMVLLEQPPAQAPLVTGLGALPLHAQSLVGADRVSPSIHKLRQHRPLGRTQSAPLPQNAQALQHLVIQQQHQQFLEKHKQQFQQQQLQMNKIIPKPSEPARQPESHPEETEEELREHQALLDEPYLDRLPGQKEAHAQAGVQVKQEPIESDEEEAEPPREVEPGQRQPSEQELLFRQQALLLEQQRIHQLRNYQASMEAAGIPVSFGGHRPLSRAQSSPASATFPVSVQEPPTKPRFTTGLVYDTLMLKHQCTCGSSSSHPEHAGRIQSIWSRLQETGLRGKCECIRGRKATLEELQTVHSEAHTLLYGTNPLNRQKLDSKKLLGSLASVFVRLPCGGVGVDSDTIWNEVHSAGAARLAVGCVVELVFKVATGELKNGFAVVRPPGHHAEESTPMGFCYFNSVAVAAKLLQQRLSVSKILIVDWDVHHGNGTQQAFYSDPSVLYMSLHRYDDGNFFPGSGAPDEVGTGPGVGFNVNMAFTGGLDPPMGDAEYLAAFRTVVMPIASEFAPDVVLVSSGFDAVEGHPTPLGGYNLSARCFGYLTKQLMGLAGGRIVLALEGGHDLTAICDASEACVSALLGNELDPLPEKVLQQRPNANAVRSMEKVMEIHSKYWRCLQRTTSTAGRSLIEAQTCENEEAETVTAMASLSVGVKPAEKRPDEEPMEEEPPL
MEASUREMENT_NAME: IC50

>>> result("Nc1cc(F)ccc1NC(=O)CCc1cn(CB2C=Cc3ccccc3N2)nn1 [Compound 14]")
"> 35 µM"
>>> result("O=C(CCCCCCNCB1C=Cc2ccccc2N1)NO [Compound 24]")
"> 35 µM"
>>> result("O=C(CCCCCCC(=O)OCB1C=Cc2ccccc2N1)NO [Compound 16d]")
"14.7 µM"
>>> result("Nc1ccccc1NC(=O)CCCCCCC(=O)OCB1C=Cc2ccccc2N1 [Compound 17]")
"16.5 µM"
>>> result("O=C(/C=C/c1ccc(C(=O)NO)cc1)OCB1C=Cc2ccccc2N1 [Compound 18]")
"> 35 µM"
>>> result("O=C(NO)c1cccc(C(=O)OCB2C=Cc3ccccc3N2)c1 [Compound 23]")
"7.3 µM"
>>> result("Nc1ccccc1NC(=O)c1cccc(B2Nc3ccccc3N2)c1 [Compound 31]")
"> 35 µM"
>>> result("O=C(NO)c1ccc(B2Nc3ccccc3N2)cc1 [Compound 35]")
"> 35 µM"
>>> result("O=C(CCCCc1cn(CB2C=Cc3ccccc3N2)nn1)NO [Compound 12]")
"13.8 µM"
>>> result("Nc1ccccc1NC(=O)c1cccc(C(=O)OCB2C=Cc3ccccc3N2)c1 [Compound 21]")
"> 35 µM"
>>> result("Nc1ccccc1NC(=O)CCCCc1cn(CB2C=Cc3ccccc3N2)nn1 [Compound 8]")
"> 35 µM"
>>> result("O=C(NO)c1cccc(CNCB2C=Cc3ccccc3N2)c1 [Compound 27]")
"> 35 µM"
